src = patent US20260103479A1

Assay: physchem
Details: water, thermodynamic from solid, Solubility in pure water
result.type: solubility

**Q:** Which solubility is reported for this compound? Cc1c(Cl)c(C)[n+]([O-])c(Cl)c1-c1noc(-c2cc(OP(=O)(O)O)c(O)c([N+](=O)[O-])c2)n1
**A:** > 500 µg/mL

---

Experiment: Subcutaneous pharmacokinetics in rats
Assay type: in vivo, male Wistar rats
Conditions: male, Wistar, sc; s.c. 3 mg/kg; rat plasma; analyte prodrug
Description: The pharmacokinetic properties of compounds 1 and 4 were assessed by subcutaneous injection to 4 male Wistar rats (3 mg/kg; DMSO:20% HPBCD (1:9)). During the studies, blood was collected at different time points, from tail vein, spun at 1500×g in a refrigerated centrifuge (4° C.) for 15 min, and the plasma obtained was stored at −80° C. until further analysis. The plasma samples collected were analysed for compound 1, compound 4 and opicapone exposure. […]
result.type: Cmax (ng/mL)
Kindly answer with a numeric value in ng/mL, unit omitted.

**Q:** Which Cmax is reported for this compound? Cc1c(Cl)c(C)[n+]([O-])c(Cl)c1-c1noc(-c2cc(OCOP(=O)(O)O)c(O)c([N+](=O)[O-])c2)n1
**A:** 3140

**Q:** Which Cmax is reported for this compound? Cc1c(Cl)c(C)[n+]([O-])c(Cl)c1-c1noc(-c2cc(OP(=O)(O)O)c(O)c([N+](=O)[O-])c2)n1
**A:** 7770

---

Give measured C0 for each item. Keep answers brief.
Experiment: Intravenous pharmacokinetics in rats
Format: in vivo, male Wistar rats
Settings: male, Wistar, iv; i.v. 1 mg/kg; rat plasma; analyte prodrug

**Q:** Which C0 is reported for this molecule? Cc1c(Cl)c(C)[n+]([O-])c(Cl)c1-c1noc(-c2cc(OCOP(=O)(O)O)c(O)c([N+](=O)[O-])c2)n1 [Compound 4]
**A:** 21900 ng/mL

**Q:** Which C0 is reported for this molecule? Cc1c(Cl)c(C)[n+]([O-])c(Cl)c1-c1noc(-c2cc(OP(=O)(O)O)c(O)c([N+](=O)[O-])c2)n1 [Compound 1]
**A:** 29400 ng/mL

---

Give measured solubility for each item. Keep answers brief.
Experiment: Aqueous solubility in distilled (pure) water at room temperature
Conditions: thermodynamic from solid

**Q:** Which solubility is reported for this compound? Cc1c(Cl)c(C)[n+]([O-])c(Cl)c1-c1noc(-c2cc(OCOP(=O)(O)O)c(O)c([N+](=O)[O-])c2)n1
**A:** > 500 µg/mL

**Q:** Which solubility is reported for this compound? Cc1c(Cl)c(C)[n+]([O-])c(Cl)c1-c1noc(-c2cc(O)c(O)c([N+](=O)[O-])c2)n1
**A:** 23 to 36 µg/mL

---

Assay: Oral pharmacokinetics in rats
Format: in vivo, male Wistar rats
Details: male, Wistar, po; p.o. 3 mg/kg; rat plasma; analyte prodrug
Give measured Cmax for each item. Keep answers brief.
Kindly answer with a numeric value in ng/mL, unit omitted.

**Q:** Which Cmax is reported for this molecule? Cc1c(Cl)c(C)[n+]([O-])c(Cl)c1-c1noc(-c2cc(OCOP(=O)(O)O)c(O)c([N+](=O)[O-])c2)n1
**A:** 32.5

**Q:** Which Cmax is reported for this molecule? Cc1c(Cl)c(C)[n+]([O-])c(Cl)c1-c1noc(-c2cc(OP(=O)(O)O)c(O)c([N+](=O)[O-])c2)n1
**A:** 146
